# ASSAY NAME: Fluorescence properties measured at pH about 10 in AttoPhos buffer
# Type: physicochemical
# ASSAY SETUP: Table 1
# Protocol: * The fluorescence is measured at pH about 10 in AttoPhos buffer (JBL Scientific, San Luis Obispo, CA). In the following examples, NMR data were measured by a Bruker AC-300 300 MHz instrument; mass spectra were obtained on a VG Platform, Fisons Instruments; fluorescence data were obtained from a Perkin Elmer Luminescence Spectrometer, Model LS50B.
EX values for the compounds below.
READOUT NAME: EX (nm)

* Oc1ccc2nc(-c3nc4ccccc4s3)sc2c1F | 423
* O=C(Cc1ccc2nc(-c3nc4ccc(O)cc4s3)sc2c1)NCCS(=O)(=O)O | 430
* OCCc1ccc2nc(-c3nc4ccc(O)cc4s3)sc2c1 | 422
* O=C(O)Cc1ccc2nc(-c3nc4ccc(O)c(Cl)c4s3)sc2c1 | 437
* O=C(O)Cc1ccc2nc(-c3nc4ccc(O)cc4s3)sc2c1 | 430
* O=S(=O)(O)c1c(O)ccc2nc(-c3nc4ccccc4s3)sc12 | 420
* Oc1ccc2nc(-c3nc4ccccc4s3)sc2c1Cl | 435
